# target_or_test_system: T1, Synthetic TMEM97 (144-176) peptide
# T1 construct: Synthetic peptide; also called (predicted) cytoplasmic segment
# T1 peptide: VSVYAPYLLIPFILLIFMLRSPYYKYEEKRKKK
# test_summary: ITC, Hst1 titrated into the C-terminal TMEM97 peptide (taken as 144-176); ITC, not SPR; C-terminal fragment taken as 144-176
Square brackets hold non-standard residues; d marks the D form. Ends that are not written are not given here. pS = N[C@@H](COP(=O)(O)O)C(=O)O
property: pKd
Numbers only, as −log10 of the molar value.

Sample D[pS]HEKRHHGYRRKFHEKHHSHREFPFYGDYGSNYLYDN (Synthetic linear peptide made by Fmoc solid-phase synthesis; also called Hst1(1-38); H1) [Histatin 1 (Hst1)] — what was its pKd?
6.34
